ASSAYED SYSTEM: LRRK2, WT (GST-tagged truncated LRRK2) (Homo sapiens (Human), UniProt Q5S007)
Sequence (Q5S007 970-2527): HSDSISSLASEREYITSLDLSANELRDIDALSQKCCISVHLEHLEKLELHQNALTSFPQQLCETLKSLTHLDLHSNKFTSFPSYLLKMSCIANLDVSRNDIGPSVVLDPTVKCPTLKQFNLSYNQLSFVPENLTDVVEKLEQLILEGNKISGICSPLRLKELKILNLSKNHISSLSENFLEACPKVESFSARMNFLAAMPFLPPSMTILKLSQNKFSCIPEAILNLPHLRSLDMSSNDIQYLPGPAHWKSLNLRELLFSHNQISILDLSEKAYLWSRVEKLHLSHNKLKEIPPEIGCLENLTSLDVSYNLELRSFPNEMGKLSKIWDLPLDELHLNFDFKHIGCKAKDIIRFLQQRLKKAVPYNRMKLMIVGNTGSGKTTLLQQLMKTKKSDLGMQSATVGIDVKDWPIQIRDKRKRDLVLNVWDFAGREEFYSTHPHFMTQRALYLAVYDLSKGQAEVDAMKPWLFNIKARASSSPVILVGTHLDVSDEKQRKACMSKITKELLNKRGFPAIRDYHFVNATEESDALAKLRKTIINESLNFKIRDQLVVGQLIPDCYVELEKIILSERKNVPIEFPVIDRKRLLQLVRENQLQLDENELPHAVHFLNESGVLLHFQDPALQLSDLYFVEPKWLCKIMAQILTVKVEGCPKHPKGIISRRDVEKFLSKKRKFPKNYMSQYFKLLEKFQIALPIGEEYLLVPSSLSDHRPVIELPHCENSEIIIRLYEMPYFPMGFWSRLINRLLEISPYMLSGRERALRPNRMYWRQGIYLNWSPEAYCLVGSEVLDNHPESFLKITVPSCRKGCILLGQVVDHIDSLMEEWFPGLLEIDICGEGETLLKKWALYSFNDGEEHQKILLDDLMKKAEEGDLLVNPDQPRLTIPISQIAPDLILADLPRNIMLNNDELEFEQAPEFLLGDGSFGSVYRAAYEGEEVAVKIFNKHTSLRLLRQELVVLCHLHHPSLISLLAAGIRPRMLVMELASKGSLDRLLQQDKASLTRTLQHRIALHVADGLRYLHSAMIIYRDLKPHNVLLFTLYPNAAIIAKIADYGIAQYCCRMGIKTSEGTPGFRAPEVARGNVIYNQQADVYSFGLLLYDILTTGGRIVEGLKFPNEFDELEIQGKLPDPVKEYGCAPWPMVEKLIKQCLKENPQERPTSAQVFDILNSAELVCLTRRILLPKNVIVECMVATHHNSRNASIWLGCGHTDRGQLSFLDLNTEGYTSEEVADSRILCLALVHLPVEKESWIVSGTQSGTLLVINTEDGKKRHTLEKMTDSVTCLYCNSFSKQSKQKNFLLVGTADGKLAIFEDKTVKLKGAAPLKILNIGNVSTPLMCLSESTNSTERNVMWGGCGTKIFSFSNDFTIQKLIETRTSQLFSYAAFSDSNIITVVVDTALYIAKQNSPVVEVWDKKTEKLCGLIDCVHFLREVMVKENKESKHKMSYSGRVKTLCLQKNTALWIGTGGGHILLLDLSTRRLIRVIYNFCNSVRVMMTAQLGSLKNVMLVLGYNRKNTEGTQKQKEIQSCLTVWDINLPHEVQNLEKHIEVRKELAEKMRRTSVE
TEST SUMMARY: LRRK2 kinase assay (Lantha Screen), wild type
CONDITION INFO: 100 nM LRRKtide, 1 mM ATP, 2 μg/mL enzyme; geometric mean of 2-4 determinations unless otherwise indicated
Record form. Attribute: pIC50. Fill in for each entry.
Field pIC50 (float): negative decimal logarithm of the concentration in molar.

pIC50 measured on C[C@@H]1C[C@H](n2c([C@H]3CCOC3)nc3cnc4ccc(C(F)F)cc4c32)CCO1 [Example 21] = 7.78

GET /value?item= C[C@@H]1C[C@H](n2c(C3CC(C)(F)C3)nc3cnc4ccc(Cl)cc4c32)CCO1 (some centres unmarked) [Example 5] &field=pIC50 returns 7.79
